target: T1, Human ROR1 (receptor tyrosine kinase-like orphan receptor 1) (human, UniProt Q01973 30-937); experiment: flow cytometry on ROR1-expressing cells; predicted plateau relative to R12 scFv = 100%
T1 construct: also called hROR1; K562/ROR1
T1 sequence (Q01973 30-937): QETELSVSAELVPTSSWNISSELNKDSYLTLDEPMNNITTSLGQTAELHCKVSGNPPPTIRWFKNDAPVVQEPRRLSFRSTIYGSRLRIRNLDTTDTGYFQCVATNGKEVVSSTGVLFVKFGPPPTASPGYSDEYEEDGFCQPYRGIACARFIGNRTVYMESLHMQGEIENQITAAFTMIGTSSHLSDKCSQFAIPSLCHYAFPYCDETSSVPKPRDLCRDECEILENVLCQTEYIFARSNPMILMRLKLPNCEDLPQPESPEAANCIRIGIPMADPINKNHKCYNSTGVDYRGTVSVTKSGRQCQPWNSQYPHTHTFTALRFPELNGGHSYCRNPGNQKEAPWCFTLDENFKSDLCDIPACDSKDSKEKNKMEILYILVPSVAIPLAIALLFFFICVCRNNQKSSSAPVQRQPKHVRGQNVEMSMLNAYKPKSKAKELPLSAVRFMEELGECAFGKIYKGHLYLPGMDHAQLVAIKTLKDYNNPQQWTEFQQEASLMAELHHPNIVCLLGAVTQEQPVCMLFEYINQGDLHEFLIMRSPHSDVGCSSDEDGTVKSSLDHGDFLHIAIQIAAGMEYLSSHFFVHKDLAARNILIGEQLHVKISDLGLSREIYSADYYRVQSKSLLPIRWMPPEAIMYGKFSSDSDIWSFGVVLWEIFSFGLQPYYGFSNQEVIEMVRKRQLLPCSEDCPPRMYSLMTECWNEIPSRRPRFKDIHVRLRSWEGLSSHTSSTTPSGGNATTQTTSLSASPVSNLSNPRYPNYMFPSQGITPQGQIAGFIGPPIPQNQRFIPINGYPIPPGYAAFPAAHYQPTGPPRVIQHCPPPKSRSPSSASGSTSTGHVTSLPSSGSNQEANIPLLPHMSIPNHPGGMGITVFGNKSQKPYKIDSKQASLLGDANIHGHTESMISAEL
measurement kind: % Max Binding (%)

Clone V18 (VHH) VHH: QVQLVESGGGLVKPGGSLRLSCAASGFTFSNAWMSWVRQAPGKGLEWVGRIKSKTDGGTTDYAAPVKGRFTISRDDSKNSLYLQMNSLKTEDTAVYYCARDFGRWSYYFDYWGQGTLVTVSS: 37
Clone V353 (VHH, human VH-only single-domain antibody, no VL) VHH: QVTLKESGGGLVKPGGSLRLSCAASGFTFSNAWMSWVRQAPGKGLEWVGRIKSKTDGGTTDYAAPVKGRFTISRDDSKNTLYLQMNSLKTEDTAVYYCARDFGRWGYYFDYWSQGTLVTVSS: 35
